Source of measurements: ChEMBL document CHEMBL1961873

The entries below are paired with their reported inhibition.
- Target Entity: Serine/threonine-protein kinase 10 (Homo sapiens) (UniProt O94804);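 note: mean percent inhibition of LOK (STK10)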
- Sequence (O94804 whole entry, looked up): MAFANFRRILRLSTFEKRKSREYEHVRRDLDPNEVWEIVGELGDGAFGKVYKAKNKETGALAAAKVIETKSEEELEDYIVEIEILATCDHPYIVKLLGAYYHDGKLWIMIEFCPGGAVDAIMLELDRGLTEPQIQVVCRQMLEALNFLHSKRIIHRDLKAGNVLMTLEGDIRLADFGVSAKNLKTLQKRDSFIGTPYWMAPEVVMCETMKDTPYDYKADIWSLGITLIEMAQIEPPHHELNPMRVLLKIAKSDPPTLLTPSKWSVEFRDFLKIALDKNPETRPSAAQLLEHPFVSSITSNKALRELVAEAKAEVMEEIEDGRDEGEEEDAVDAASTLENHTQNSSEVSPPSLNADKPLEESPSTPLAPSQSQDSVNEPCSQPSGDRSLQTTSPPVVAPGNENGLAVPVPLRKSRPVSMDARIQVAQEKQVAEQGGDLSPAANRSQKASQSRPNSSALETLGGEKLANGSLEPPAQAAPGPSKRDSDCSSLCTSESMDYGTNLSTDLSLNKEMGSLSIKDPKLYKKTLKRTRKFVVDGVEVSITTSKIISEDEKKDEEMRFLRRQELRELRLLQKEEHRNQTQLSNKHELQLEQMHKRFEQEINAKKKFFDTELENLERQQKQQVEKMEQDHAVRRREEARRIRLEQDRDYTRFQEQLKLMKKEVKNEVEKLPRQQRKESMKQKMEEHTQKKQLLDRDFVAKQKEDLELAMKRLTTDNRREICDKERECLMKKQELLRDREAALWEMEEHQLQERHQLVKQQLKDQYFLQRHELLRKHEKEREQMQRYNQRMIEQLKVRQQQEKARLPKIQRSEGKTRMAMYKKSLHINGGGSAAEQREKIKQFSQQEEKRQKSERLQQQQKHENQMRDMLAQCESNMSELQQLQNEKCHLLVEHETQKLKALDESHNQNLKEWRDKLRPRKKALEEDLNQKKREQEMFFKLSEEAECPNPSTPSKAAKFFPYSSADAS
- Condition Context: at 0.1 µM
Measurement Name: inhibition

Compound | Measurement Name | Reported Result
CCNC(=O)O[C@H]1CN[C@H](C#Cc2cc3ncnc(Nc4ccc(OCc5cccc(F)c5)c(Cl)c4)c3s2)C1 | inhibition | 3.53%
CC1=C(C(=O)Nc2cc(Cl)c3[nH]ncc3c2)C(c2ccc(C(F)(F)F)cc2)CC(=O)N1 (stereo not given) | inhibition | 6.25%
Nc1nc(-c2ccc(F)cc2)c(-c2ccc3ncccc3n2)s1 | inhibition | 5.75%
CCn1c(-c2nonc2N)nc2cnc(Oc3cccc(NC(=O)c4ccc(N(C)C)cc4)c3)cc21 | inhibition | 2.62%
c1ccc(-c2nc3n(c2-c2ccc4c(c2)OCO4)CCC3)nc1 | inhibition | -0.05%
NS(=O)(=O)c1ccc(Nc2ncc(-c3ccccc3)o2)cc1 | inhibition | 5.53%
CCn1c(-c2nonc2N)nc2ccccc21 | inhibition | 2.59%
CCN1CCC(CC(=O)Nc2n[nH]c3nnc(-c4cccc(F)c4F)cc23)CC1 | inhibition | 3.88%
COC(=O)c1sc(-n2cnc3cc(OC)c(OC)cc32)cc1OCc1ccccc1C(F)(F)F | inhibition | 6.81%
CC(=O)Nc1cccc(C#Cc2cncnc2Nc2ccc(OCc3cccc(F)c3)c(Cl)c2)c1 | inhibition | 2.85%
CC(C)COC(=O)c1ccc2c(c1)/C(=C/Nc1ccc(S(N)(=O)=O)cc1)C(=O)N2 | inhibition | -1.08%
N#Cc1c(NC(=O)c2ccc(F)cc2)sc2c1CCCC2 | inhibition | 3.11%
Cc1ccc2c(-c3ccnc(Nc4ccccc4)n3)c(-c3ccc(F)cc3)nn2n1 | inhibition | 7.71%
CCCN(CCS(C)(=O)=O)Cc1ccc(-c2ccc3ncnc(Nc4ccc(OCc5cccc(F)c5)c(Cl)c4)c3c2)o1 | inhibition | 2.22%
CCN(CC)S(=O)(=O)c1ccc(OC)c(Nc2ncc(-c3ccccc3)o2)c1 | inhibition | 2.55%
COC(=O)Nc1nc2ccc(S(=O)(=O)c3ccc(NC(=O)Nc4cc(C(F)(F)F)ccc4F)cc3)cc2[nH]1 | inhibition | 3.49%
CCOc1ccc2c(-c3ccnc(Nc4cccc(C(F)(F)F)c4)n3)cnn2n1 | inhibition | 4.81%
Cc1cccc(Nc2ncc(-c3ccccc3)o2)c1 | inhibition | 3.16%
NS(=O)(=O)c1ccc(N/N=C2\C(=O)Nc3ccc4ncccc4c32)cc1 | inhibition | 4.44%
Cc1ccc(O)cc1Nc1ccnc2cc(-c3ccccn3)ccc12 | inhibition | 11.1%
CS(=O)(=O)CCNCc1coc(-c2ccc3ncnc(Nc4ccc(OCc5ccccc5)cc4)c3c2)c1 | inhibition | 8.03%
COc1ccc2c(-c3ccnc(Nc4cccc(OC(F)(F)F)c4)n3)cnn2n1 | inhibition | 4.75%
COc1cc2ncn(-c3cc(OCc4ccccc4C(F)(F)F)c(C(=O)N(C)C)s3)c2cc1OC | inhibition | 12.9%
COc1ccc(-c2cc(-c3c[nH]nc3-c3ccccn3)ccn2)cc1 | inhibition | 5.75%
CCCN1CCC(c2ccc(Nc3nc(Nc4cc(F)ccc4C(N)=O)c4cc[nH]c4n3)c(OC)c2)CC1 | inhibition | 7.74%

* * *

- Target Entity: Vascular endothelial growth factor receptor 3 (Homo sapiens)
- Condition Context: at 0.1 µM
- Description: GSK_PKIS: FLT4 mean inhibition at 0.1 uM [Nanosyn]
The entries below are paired with their reported inhibition.

Compound | inhibition / %
CCCN1CCC(c2ccc(Nc3nc(Nc4cc(F)ccc4C(N)=O)c4cc[nH]c4n3)c(OC)c2)CC1 | -1.93
c1ccc(COc2ccc(Nc3ncnc4ccc(-c5ccco5)cc34)cc2)cc1 | 1.83
Cc1ccc(O)cc1Nc1ccnc2cc(-c3ccccn3)ccc12 | 62.5
COc1cc(Nc2nccc(Nc3ccc4c(C)n[nH]c4c3)n2)cc(OC)c1OC | 78.8
NS(=O)(=O)c1ccc(N/N=C2\C(=O)Nc3ccc4ncccc4c32)cc1 | 43.9
Fc1ccc(-c2nn3ncccc3c2-c2ccnc(Nc3ccc4c(c3)OCCO4)n2)cc1 | 7.5
CNC(=O)c1cccc(C#Cc2cncnc2Nc2ccc(OCc3cccc(F)c3)c(Cl)c2)c1 | -2.07
CCn1c(-c2nonc2N)nc2cnc(Oc3cccc(NC(=O)c4ccc(N(C)C)cc4)c3)cc21 | 0.61
Cc1cccc(Nc2ncc(-c3ccccc3)o2)c1 | 5.49
CS(=O)(=O)CCNCc1ccc(-c2ccc3ncnc(Nc4ccc(OCc5ccccc5)c(C(F)(F)F)c4)c3c2)o1 | 1.59
N#Cc1c(NC(=O)c2ccc(F)cc2)sc2c1CCCC2 | 0.08
CCN1CCC(CC(=O)Nc2n[nH]c3nnc(-c4cccc(F)c4F)cc23)CC1 | 1.01
COc1cccc(-c2c[nH]c3c(N/N=C/c4ccncc4)ncnc23)c1 | 4.35
Cc1cccc2c1NC(=O)/C2=N\Nc1ccc(S(N)(=O)=O)cc1 | 3.59
FC(F)(F)c1cccc(-c2nn3ncccc3c2-c2ccnc(Nc3ccc4c(c3)OCCO4)n2)c1 | 3.34
CCn1c(-c2nonc2N)nc2ccccc21 | 5.92
CS(=O)(=O)CCNCc1coc(-c2ccc3ncnc(Nc4ccc(OCc5ccccc5)cc4)c3c2)c1 | 4.45
COc1ccc2c(-c3ccnc(Nc4cccc(OC(F)(F)F)c4)n3)cnn2n1 | 4.15
COC(=O)Nc1nc2ccc(Oc3ccc(NC(=O)Nc4cccc(Cl)c4)cc3)cc2[nH]1 | 4.07
COc1ccc(CNC(=O)c2ccc(-c3cc(-c4nnc(C)o4)ccc3C)cc2)cc1 | -1.03
CCn1c(-c2nonc2N)nc2c(C#CC(C)(C)O)ncc(OC3CCNCC3)c21 | 8.92
COc1cccc(-n2ncc3c(N/N=C/c4ccc(F)cc4)ncnc32)c1 | 7.04
Fc1cccc(COc2ccc(Nc3ncnc4sc(-c5ccco5)cc34)cc2Cl)c1 | 1.58
Nc1nc(-c2cccc(Cl)c2)c(-c2ccc3ncccc3n2)s1 | 0.27
COc1ccc(-c2cc3c(N)ncnc3o2)cc1 | 0.51
N#Cc1c(NC(=O)CN2CCOCC2)sc2c1CCCC2 | 0.77
CC1=C(C(=O)Nc2cc(Cl)c3[nH]ncc3c2)C(c2ccc(C(F)(F)F)cc2)CC(=O)N1 (configuration not stated) | -0.3

* * *

The entries below are paired with their reported inhibition.
- Target Entity: G protein-coupled receptor kinase 6 (Homo sapiens) (UniProt P43250);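 note: mean percent inhibition of GRK6, GSK PKIS screen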
- Sequence (P43250 whole entry, looked up): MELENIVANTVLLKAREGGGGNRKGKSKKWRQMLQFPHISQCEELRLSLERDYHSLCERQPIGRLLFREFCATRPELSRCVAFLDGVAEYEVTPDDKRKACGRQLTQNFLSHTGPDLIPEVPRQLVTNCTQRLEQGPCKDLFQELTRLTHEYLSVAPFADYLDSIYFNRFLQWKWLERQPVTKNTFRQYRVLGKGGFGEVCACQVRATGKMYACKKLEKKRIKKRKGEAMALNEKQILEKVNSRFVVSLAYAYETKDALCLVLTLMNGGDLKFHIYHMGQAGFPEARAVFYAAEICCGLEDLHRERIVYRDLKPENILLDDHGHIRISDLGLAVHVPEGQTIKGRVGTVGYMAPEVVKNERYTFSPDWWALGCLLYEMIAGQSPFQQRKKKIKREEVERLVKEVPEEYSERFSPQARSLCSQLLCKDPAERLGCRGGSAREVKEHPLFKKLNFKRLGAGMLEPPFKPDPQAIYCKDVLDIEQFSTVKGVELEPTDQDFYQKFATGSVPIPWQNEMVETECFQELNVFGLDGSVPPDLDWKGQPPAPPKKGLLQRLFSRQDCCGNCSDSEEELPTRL
- Condition Context: at 0.1 µM
Measurement Name: inhibition (%)

Smiles Notation | Target Entity | Reported Result
COc1ccc2c(-c3ccnc(Nc4cccc(OC(F)(F)F)c4)n3)cnn2n1 | G protein-coupled receptor kinase 6 (Homo sapiens) (UniProt P43250) | 4.64
Fc1cccc(COc2ccc(Nc3ncnc4sc(-c5ccco5)cc34)cc2Cl)c1 | G protein-coupled receptor kinase 6 (Homo sapiens) (UniProt P43250) | 2.57
Cc1cccc(Nc2ncc(-c3ccccc3)o2)c1 | G protein-coupled receptor kinase 6 (Homo sapiens) (UniProt P43250) | 5.33
COc1cc2c(cc1Nc1nc(Nc3ccsc3C(N)=O)c3cc[nH]c3n1)N(C(=O)CN(C)C)CCC2(C)C | G protein-coupled receptor kinase 6 (Homo sapiens) (UniProt P43250) | 49.5

* * *

- Target Entity: Mitogen-activated protein kinase 13 (Homo sapiens) (UniProt O15264);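 note: mean inhibition of p38delta, screened as part of the GSK PKIS kinase inhibitor set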
- Sequence (whole entry): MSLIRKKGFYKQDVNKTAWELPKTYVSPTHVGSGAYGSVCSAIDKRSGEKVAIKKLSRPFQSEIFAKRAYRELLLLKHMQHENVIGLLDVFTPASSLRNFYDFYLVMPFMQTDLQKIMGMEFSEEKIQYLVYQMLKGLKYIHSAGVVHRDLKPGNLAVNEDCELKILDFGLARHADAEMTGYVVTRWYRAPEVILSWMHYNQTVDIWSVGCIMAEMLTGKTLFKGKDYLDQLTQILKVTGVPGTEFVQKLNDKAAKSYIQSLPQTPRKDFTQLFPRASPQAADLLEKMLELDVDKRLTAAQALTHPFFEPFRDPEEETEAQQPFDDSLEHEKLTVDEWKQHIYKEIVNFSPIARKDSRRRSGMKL
- Condition Context: at 1 µM

Smiles Notation | Target Entity | inhibition (%)
N#Cc1c(NC(=O)CN2CCOCC2)sc2c1CCCC2 | Mitogen-activated protein kinase 13 (Homo sapiens) (UniProt O15264) | 5.61
CCn1c(-c2nonc2N)nc2ccccc21 | Mitogen-activated protein kinase 13 (Homo sapiens) (UniProt O15264) | 3.3
Cc1cccc(Nc2ncc(-c3ccccc3)o2)c1 | Mitogen-activated protein kinase 13 (Homo sapiens) (UniProt O15264) | 2.94
COc1ccc2c(-c3ccnc(Nc4cccc(OC(F)(F)F)c4)n3)cnn2n1 | Mitogen-activated protein kinase 13 (Homo sapiens) (UniProt O15264) | 7.58
Nc1nc(-c2cccc(Cl)c2)c(-c2ccc3ncccc3n2)s1 | Mitogen-activated protein kinase 13 (Homo sapiens) (UniProt O15264) | 5.27

* * *

The entries below are paired with their reported inhibition.
- Target Entity: Non-receptor tyrosine-protein kinase TNK1 (Homo sapiens) (UniProt Q13470);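 note: values are averaged percent inhibition of TNK1, compounds from the GSK published kinase inhibitor set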
- Sequence (Q13470 whole entry): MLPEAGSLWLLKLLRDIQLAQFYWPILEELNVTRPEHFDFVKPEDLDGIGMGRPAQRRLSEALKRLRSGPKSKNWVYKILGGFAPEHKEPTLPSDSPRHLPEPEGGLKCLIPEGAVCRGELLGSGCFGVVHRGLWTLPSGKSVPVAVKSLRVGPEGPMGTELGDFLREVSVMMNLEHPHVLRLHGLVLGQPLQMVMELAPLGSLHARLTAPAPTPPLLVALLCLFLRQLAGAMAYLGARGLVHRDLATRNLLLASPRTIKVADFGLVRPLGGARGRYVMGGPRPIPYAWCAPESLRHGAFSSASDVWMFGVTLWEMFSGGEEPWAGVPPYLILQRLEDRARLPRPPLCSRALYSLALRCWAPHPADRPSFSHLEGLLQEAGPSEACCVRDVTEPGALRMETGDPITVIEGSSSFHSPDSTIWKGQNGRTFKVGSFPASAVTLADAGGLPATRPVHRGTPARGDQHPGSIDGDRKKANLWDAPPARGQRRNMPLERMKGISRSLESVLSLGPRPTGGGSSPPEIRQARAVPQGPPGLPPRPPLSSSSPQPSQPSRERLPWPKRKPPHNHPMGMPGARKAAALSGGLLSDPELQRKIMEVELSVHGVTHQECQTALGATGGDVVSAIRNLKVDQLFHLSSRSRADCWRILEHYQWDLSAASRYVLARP
- Condition Context: at 1 µM

Smiles Notation | inhibition [%]
CCn1c(-c2nonc2N)nc2c(C#CC(C)(C)O)nc(OC[C@H](N)c3ccccc3)cc21 | -4.26
O=C(Nc1n[nH]c2cc(-c3ccc(F)cc3)ccc12)C1CC1 | 5.38
Nc1nc(-c2ccc(F)cc2)c(-c2ccc3ncccc3n2)s1 | 6.8
COc1cc(/C=N/Nc2ncnc3[nH]ncc23)ccc1O | 18.9
COc1ccc(-c2cc3c(N)ncnc3o2)cc1 | 6.1
N#Cc1c(NC(=O)CN2CCOCC2)sc2c1CCCC2 | 8.64
